As shown below, each of these compounds has a reported pIC50 value.
Tested on: NCI-N87
Test: Antiproliferative activity against human NCI-N87 cells after 72 hrs by CCK8 assay
Assay type: functional, cell-based
Conditions: Homo sapiens, NCI-N87, 72 h
Scale: negative log10 of molar concentration, which is what pIC50 denotes.

[
  {
    "compound": "CS(=O)(=O)N1CCN(c2ccc(Nc3nc(-c4cnc(N)cc4C(F)(F)F)cc(N4CCOCC4)n3)cc2)CC1",
    "tested system": "NCI-N87",
    "pIC50": 5.89
  },
  {
    "compound": "Nc1cc(C(F)(F)F)c(-c2cc(N3CCOCC3)nc(N3C[C@@H]4OCCO[C@@H]4C3)n2)cn1",
    "tested system": "NCI-N87",
    "pIC50": 5.71
  },
  {
    "compound": "Nc1cc(C(F)(F)F)c(-c2cc(N3CCOCC3)nc(Nc3cccc(N4CCOCC4)c3)n2)cn1",
    "tested system": "NCI-N87",
    "pIC50": 5.33
  }
]

Problem: Looking for the measured pIC50 of C[C@@H]1CN(c2nc(-c3cnc(N)cc3C(F)(F)F)cc(N3CCOCC3)n2)C[C@H](C)O1 , can you help?
Solution: 6.28

Problem: What do you have for Nc1cc(C(F)(F)F)c(-c2cc(N3C[C@H]4OCCO[C@@H]4C3)nc(N3CCOCC3)n2)cn1 (racemic) ?
Solution: 5.21

Problem: What do you have for Nc1cc(C(F)(F)F)c(-c2cc(N3CCOCC3)nc(N3C[C@H]4C[C@@H]3CO4)n2)cn1 ?
Solution: 5.85

Problem: What do you have for Nc1cc(C(F)(F)F)c(-c2nc(N3CCOCC3)nc(N3C[C@@H]4OCCO[C@H]4C3)n2)cn1 ?
Solution: 5.56

###

Tested on: HT-1080
Assay: Antiproliferative activity against human HT1080 cells after 72 hrs by CCK8 assay
Format: functional, cell-based
Details: HT-1080, 72 h
As shown below, each of these molecules has a reported IC50 value.
Respond numerically; units are µM and should not be typed.

The examples below pair each entry with its known result.
[
  {
    "molecule": "Nc1cc(C(F)(F)F)c(-c2cc(N3CCOCC3)nc(N3C[C@H]4C[C@@H]3CO4)n2)cn1",
    "tested system": "HT-1080",
    "value type": "IC50",
    "unit name": "µM",
    "recorded measurement": 2.72
  },
  {
    "molecule": "Nc1cc(C(F)(F)F)c(-c2cc(N3CCOCC3)nc(N3C[C@@H]4OCCO[C@@H]4C3)n2)cn1",
    "tested system": "HT-1080",
    "value type": "IC50",
    "unit name": "µM",
    "recorded measurement": 4.84
  },
  {
    "molecule": "Nc1cc(C(F)(F)F)c(-c2cc(N3CCOCC3)nc(N3C[C@@H]4OCCO[C@H]4C3)n2)cn1 (racemic)",
    "tested system": "HT-1080",
    "value type": "IC50",
    "unit name": "µM",
    "recorded measurement": 4.73
  }
]

The record that follows has no IC50 shown yet.
Problem: Looking for the measured IC50 of Nc1cc(C(F)(F)F)c(-c2cc(N3CCOCC3)nc(N3CCOCC3)n2)cn1 [BUPARLISIB] , can you help?
Solution: 2.08

###

Test system: HL-60
Assay: Antiproliferative activity against human HL60 cells after 72 hrs by CCK8 assay
Assay type: functional, cell-based
Conditions: HL-60, 72 h
As shown below, each of these compounds has a reported pIC50 value.
Scale: negative log10 of molar concentration, which is what pIC50 denotes.

The examples below pair each entry with its known result.
[
  {
    "smiles string": "CS(=O)(=O)N1CCN(c2ccc(Nc3nc(-c4cnc(N)cc4C(F)(F)F)cc(N4CCOCC4)n3)cc2)CC1",
    "pIC50": 6.03
  },
  {
    "smiles string": "Nc1cc(C(F)(F)F)c(-c2cc(N3CCOCC3)nc(Nc3cccc(N4CCOCC4)c3)n2)cn1",
    "pIC50": 5.36
  },
  {
    "smiles string": "CS(=O)(=O)N1CCN(C(=O)c2ccc(Nc3nc(-c4cnc(N)cc4C(F)(F)F)cc(N4CCOCC4)n3)cc2)CC1",
    "pIC50": 5.60
  },
  {
    "smiles string": "Nc1cc(C(F)(F)F)c(-c2nc(N3CCOCC3)nc(N3C[C@@H]4OCCO[C@H]4C3)n2)cn1",
    "pIC50": 5.31
  }
]

The record that follows has no pIC50 shown yet.
Problem: Requested read-out pIC50, target or system HL-60, entry Nc1cc(C(F)(F)F)c(-c2nc(N3CCOCC3)nc(N3C[C@H]4OCCO[C@@H]4C3)n2)cn1
Solution: 5.57

###

Test system: PC-3
Test: Antiproliferative activity against human PC3 cells after 72 hrs by CCK8 assay
Assay type: functional, cell-based
Conditions: PC-3, 72 h
As shown below, each of these molecules has a reported IC50 value.
Respond numerically; units are µM and should not be typed.

[
  {
    "smiles string": "Nc1cc(C(F)(F)F)c(-c2nc(N3CCOCC3)nc(N3C[C@H]4OCCO[C@@H]4C3)n2)cn1",
    "tested system": "PC-3",
    "unit name": "µM",
    "IC50": 5.63
  }
]

Problem: Requested read-out IC50, target or system PC-3, entry Nc1cc(C(F)(F)F)c(-c2cc(N3CCOCC3)nc(Nc3cccc(N4CCOCC4)c3)n2)cn1
Solution: 2.21

Problem: What do you have for CS(=O)(=O)N1CCN(c2ccc(Nc3nc(-c4cnc(N)cc4C(F)(F)F)cc(N4CCOCC4)n3)cc2)CC1 ?
Solution: 7.49

Problem: What do you have for Nc1cc(C(F)(F)F)c(-c2nc(N3CCOCC3)nc(N3C[C@@H]4OCCO[C@H]4C3)n2)cn1 ?
Solution: 6.24

Problem: What do you have for CS(=O)(=O)N1CCN(C(=O)c2ccc(Nc3nc(-c4cnc(N)cc4C(F)(F)F)cc(N4CCOCC4)n3)cc2)CC1 ?
Solution: 19.5

###

As shown below, each of these compounds has a reported pIC50 value.
Tested on: MOLT-4
Assay: Antiproliferative activity against human MOLT4 cells after 72 hrs by CCK8 assay
Assay type: functional, cell-based
Conditions: Homo sapiens, MOLT-4, 72 h
Scale: negative log10 of molar concentration, which is what pIC50 denotes.

The examples below pair each entry with its known result.
[
  {
    "compound": "Nc1cc(C(F)(F)F)c(-c2cc(N3CCOCC3)nc(N3C[C@H]4OCCO[C@@H]4C3)n2)cn1",
    "pIC50": 5.71
  },
  {
    "compound": "Nc1cc(C(F)(F)F)c(-c2nc(N3CCOCC3)nc(N3C[C@H]4OCCO[C@@H]4C3)n2)cn1 (racemic)",
    "pIC50": 5.92
  },
  {
    "compound": "Nc1cc(C(F)(F)F)c(-c2cc(N3C[C@H]4OCCO[C@@H]4C3)nc(N3CCOCC3)n2)cn1 (racemic)",
    "pIC50": 5.49
  },
  {
    "compound": "C[C@@H]1CN(c2nc(-c3cnc(N)cc3C(F)(F)F)cc(N3CCOCC3)n2)C[C@H](C)O1",
    "pIC50": 6.38
  },
  {
    "compound": "Nc1cc(C(F)(F)F)c(-c2cc(N3CCOCC3)nc(N3C[C@H]4C[C@@H]3CO4)n2)cn1",
    "pIC50": 5.94
  },
  {
    "compound": "Nc1cc(C(F)(F)F)c(-c2cc(N3CCOCC3)nc(N3CCOCC3)n2)cn1 [BUPARLISIB]",
    "pIC50": 6.10
  },
  {
    "compound": "CS(=O)(=O)N1CCN(c2nc(-c3cnc(N)cc3C(F)(F)F)cc(N3CCOCC3)n2)CC1",
    "pIC50": 5.95
  },
  {
    "compound": "Nc1cc(C(F)(F)F)c(-c2cc(N3CCOCC3)nc(N3C[C@@H]4OCCO[C@H]4C3)n2)cn1 (racemic)",
    "pIC50": 6.00
  }
]

Problem: Looking for the measured pIC50 of Nc1cc(C(F)(F)F)c(-c2cc(N3CCOCC3)nc(Nc3ccc(N4CCOCC4)cc3)n2)cn1 , can you help?
Solution: 5.75

Problem: What do you have for Nc1cc(C(F)(F)F)c(-c2cc(N3CCOCC3)nc(N3C[C@@H]4OCCO[C@@H]4C3)n2)cn1 ?
Solution: 5.60

Problem: What do you have for CC(/C=C/C(=O)NO)=C\[C@@H](C)C(=O)c1ccc(N(C)C)cc1 [TRICHOSTATIN] ?
Solution: 7.70

Problem: What do you have for Nc1cc(C(F)(F)F)c(-c2nc(N3CCOCC3)nc(N3C[C@@H]4OCCO[C@H]4C3)n2)cn1 ?
Solution: 5.68

Problem: What do you have for CS(=O)(=O)N1CCN(C(=O)c2ccc(Nc3nc(-c4cnc(N)cc4C(F)(F)F)cc(N4CCOCC4)n3)cc2)CC1 ?
Solution: 5.71

Problem: What do you have for CS(=O)(=O)N1CCN(c2ccc(Nc3nc(-c4cnc(N)cc4C(F)(F)F)cc(N4CCOCC4)n3)cc2)CC1 ?
Solution: 5.95

Problem: What do you have for Nc1cc(C(F)(F)F)c(-c2cc(N3CCOCC3)nc(Nc3cccc(N4CCOCC4)c3)n2)cn1 ?
Solution: 5.39
